# System Under Test: T1, soluble Homo sapiens CD131 comprising a C-terminal 6xHis tag (human, UniProt P32927 17-438)
# T1 construct: truncated after Ser438, C-terminal 6xHis; also called shCD131; shβc
# T1 sequence: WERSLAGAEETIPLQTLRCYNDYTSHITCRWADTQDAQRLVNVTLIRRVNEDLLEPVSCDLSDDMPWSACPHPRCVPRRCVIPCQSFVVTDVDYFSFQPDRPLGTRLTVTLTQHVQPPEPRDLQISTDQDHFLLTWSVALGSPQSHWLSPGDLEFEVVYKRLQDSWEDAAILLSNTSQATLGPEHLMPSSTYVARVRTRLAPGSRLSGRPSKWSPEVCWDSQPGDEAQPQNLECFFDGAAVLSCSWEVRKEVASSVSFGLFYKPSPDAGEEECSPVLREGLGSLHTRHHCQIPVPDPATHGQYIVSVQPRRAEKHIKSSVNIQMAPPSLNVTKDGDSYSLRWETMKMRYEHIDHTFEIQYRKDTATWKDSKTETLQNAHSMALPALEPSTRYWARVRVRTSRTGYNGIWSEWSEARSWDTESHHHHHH
# Procedure Text: SPR, Fab over captured shCD131
So I've got a bunch of binders here, and I need their kon values.
Give just the number in M⁻¹ s⁻¹; leave the unit off.

So what does the record say about kon for 9A2-VR24.107 Fab (Fab, V domains shown, recombinant Fab) VH: EVQLLESGGGLVQPGGSLRLSCAASGFTFPWYRVHWVRQAPGKGLEWVSSIRSSGGFPYYNPFVKGRFTISRDNSKNTLYLQMNSLRAEDTAVYYCARFYDSFFDIWGQGTMVTVSS VL: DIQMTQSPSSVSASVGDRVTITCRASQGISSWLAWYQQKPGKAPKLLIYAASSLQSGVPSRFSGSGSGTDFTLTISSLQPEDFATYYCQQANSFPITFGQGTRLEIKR ? 2.89e+06

Repeat for the following binder: 9A2-VR24.55 Fab (Fab, V domains shown, recombinant Fab) VH: EVQLLESGGGLVQPGGSLRLSCAASGFTFPWYRVHWVRQAPGKGLEWVSSIRSSGGFTYYNPSVKNRFTISRDNSKNTLYLQMNSLRAEDTAVYYCARFYDSFFDIWGQGTMVTVSS VL: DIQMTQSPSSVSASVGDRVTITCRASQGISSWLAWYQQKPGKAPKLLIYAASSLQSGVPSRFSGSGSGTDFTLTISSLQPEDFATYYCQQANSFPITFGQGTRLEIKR 2.55e+06
